test system: Candida albicans; assay: Antifungal activity against Candida albicans at 25 ug/ml incubated for 48 hrs by agar well diffusion method; type: functional; conditions: read-out: DIZ
Respond with true for zone of inhibition at 25 µg/mL values of 10 mm and above, false for values below.

>>> print(df.to_string())
                                  smilestext  labelvalue
 0  Cl.O=C(Oc1ccc2c(=O)c3ccccc3oc2c1)[C@@H]1CCCN1        true
 1          N[C@@H](Cc1c[nH]c2ccccc12)C(=O)O       false
 2  CC(C)(C)OC(=O)N[C@@H](Cc1c[nH]c2ccccc12)C(=O)Oc1ccc2c(=O)c3ccccc3oc2c1        true
 3  CC(C)(C)OC(=O)N[C@@H](Cc1ccc(O)cc1)C(=O)Oc1ccc2c(=O)c3ccccc3oc2c1        true
 4  Cl.N[C@@H](CS)C(=O)Oc1ccc2c(=O)c3ccccc3oc2c1        true
 5       Cl.NCC(=O)Oc1ccc2c(=O)c3ccccc3oc2c1       false
 6  C[C@H](N)C(=O)Oc1ccc2c(=O)c3ccccc3oc2c1.Cl       false
 7  CC(C)(C)OC(=O)NCC(=O)Oc1ccc2c(=O)c3ccccc3oc2c1       false
 8               N[C@@H](Cc1ccc(O)cc1)C(=O)O       false
 9  CSCC[C@H](N)C(=O)Oc1ccc2c(=O)c3ccccc3oc2c1.Cl        true
10                  COC(=O)Nc1nc2ccccc2[nH]1        true
11  CC(C)(C)OC(=O)N[C@@H](Cc1ccccc1)C(=O)Oc1ccc2c(=O)c3ccccc3oc2c1        true
12  Cl.N[C@@H](Cc1ccccc1)C(=O)Oc1ccc2c(=O)c3ccccc3oc2c1        true
13  CC(C)(C)OC(=O)N[C@@H](CS)C(=O)Oc1ccc2c(=O)c3ccccc3oc2c1        true
14  CC(C)C[C@H](NC(=O)OC(C)(C)C)C(=O)Oc1ccc2c(=O)c3ccccc3oc2c1       false
15  CSCC[C@H](NC(=O)OC(C)(C)C)C(=O)Oc1ccc2c(=O)c3ccccc3oc2c1        true
16  C[C@H](NC(=O)OC(C)(C)C)C(=O)Oc1ccc2c(=O)c3ccccc3oc2c1       false
17  Cl.N[C@@H](Cc1c[nH]c2ccccc12)C(=O)Oc1ccc2c(=O)c3ccccc3oc2c1        true
18  CC[C@H](C)[C@H](NC(=O)OC(C)(C)C)C(=O)Oc1ccc2c(=O)c3ccccc3oc2c1       false
19  CC(C)(C)OC(=O)N1CCC[C@H]1C(=O)Oc1ccc2c(=O)c3ccccc3oc2c1        true
20  Cl.N[C@@H](Cc1ccc(O)cc1)C(=O)Oc1ccc2c(=O)c3ccccc3oc2c1        true
21  CC(C)[C@H](N)C(=O)Oc1ccc2c(=O)c3ccccc3oc2c1.Cl       false
